- Experiment: Plasma concentration in athymic nude mouse bearing human Caco2 cells at 100 mg/kg, po measured after 4 hrs
- Type: ADME, organism-based, Caco-2
- Design: dose 100 mg/kg, route oral
Recorded metric: concentration at 4 h

Provide concentration at 4 h value for the following molecule: O=c1[nH]c([C@@H]2CCCN2)nc2c1oc1ccc(Cl)cc12
186 µM

* * *

- Experiment: Drug uptake in tumor of Caco2 cells xenografted athymic nude mouse at 3 mg/kg, po measured after 4 hrs
- Assay type: ADME, organism-based, Neoplasm, Caco-2
- Set-up: dose 3 mg/kg, route oral
- Measurement parameters: read-out: Drug uptake
Recorded metric: concentration at 4 h (µM)
Give bare numbers, in µM.

Provide concentration at 4 h value for the following molecule: O=c1[nH]c([C@@H]2CCCN2)nc2c1oc1ccc(Cl)cc12
3.2
